Measurement Target: Phosphodiesterase 4 (Homo sapiens, UniProt P27815+Q08499+Q07343+Q08493)
Measurement Notes: Inhibitory effect in cAMP-specific Phosphodiesterase 4 (PDE 4) isolated from guinea pig ventricular tissue.
Format: protein assay, Cavia porcellus
Condition Set: target entry is the homologue from another species
Overview of reported log10 of IC50 across a group of compounds:
Quantity: log10 of IC50 (log10 of the value in µM)

>>> val("CCCc1nc(SCc2ccc(-c3ccccc3-c3nn[nH]n3)cc2)c2cc(C)ccc2n1")
0.58
>>> val("CCc1nc(OCc2ccc(-c3ccccc3-c3nn[nH]n3)cc2)c2ccccc2n1")
1.15
>>> val("CCCCN(Cc1ccccc1-c1ccccc1)c1nc2c3c(ccc2s1)CCCC3")
1.62
>>> val("CCCCc1nc(NCc2ccc(-c3ccccc3-c3nn[nH]n3)cc2)c2ccccc2n1")
0.88
>>> val("CC(C)c1nc(SCc2ccc(-c3ccccc3-c3nn[nH]n3)cc2)c2ccccc2n1")
0.58
>>> val("CCN(Cc1ccccc1-n1ncnn1)c1nc2nc3ccccc3n2s1")
2.03
>>> val("CCN(Cc1ccc(-c2ccccc2-n2ncnn2)cc1)c1nc2nc3ccccc3n2s1")
1.87
>>> val("CCN(Cc1ccccc1)c1nc2nc3ccccc3n2s1")
1.51

* * *

Measurement Target: Phosphodiesterase 4 (Homo sapiens, UniProt P27815+Q08499+Q07343+Q08493)
Measurement Notes: Inhibitory effect in cAMP-specific Phosphodiesterase 4 (PDE 4) isolated from guinea pig ventricular tissue.
Format: protein assay, Cavia porcellus
Condition Set: target entry is the homologue from another species
Label Fulfilled when IC50 is strictly below 20 µM; otherwise label Not fulfilled.

>>> group_label("CCc1nc(NCc2ccc(-c3ccccc3-c3nn[nH]n3)cc2)c2ccccc2n1")
"Not fulfilled"
>>> group_label("CCCCN(Cc1ccccc1)c1nc2nc3ccccc3n2s1")
"Not fulfilled"
>>> group_label("CCCCN(Cc1ccccc1-c1ccccc1)c1nc2nc3ccccc3n2s1")
"Not fulfilled"
>>> group_label("CCCc1nc(SCc2ccc(-c3ccccc3-c3nn[nH]n3)cc2)c2ccccc2n1")
"Fulfilled"
>>> group_label("CCCc1nc(SCc2ccc(-c3ccccc3-c3nn[nH]n3)cc2)c2cc(C)cc(C)c2n1")
"Fulfilled"
>>> group_label("CCc1nc(SCc2ccc(-c3ccccc3-c3nn[nH]n3)cc2)c2ccccc2n1")
"Fulfilled"
>>> group_label("CCN(Cc1ccccc1-c1ccccc1)c1nc2nc3ccccc3n2s1")
"Not fulfilled"
>>> group_label("CCCCc1nc(SCc2ccc(-c3ccccc3-c3nn[nH]n3)cc2)c2ccccc2n1")
"Fulfilled"
>>> group_label("Cc1nc(SCc2ccc(-c3ccccc3-c3nn[nH]n3)cc2)c2ccccc2n1")
"Fulfilled"
>>> group_label("CCCCc1nc(OCc2ccc(-c3ccccc3-c3nn[nH]n3)cc2)c2ccccc2n1")
"Fulfilled"

* * *

Measurement Target: Phosphodiesterase 3 (Homo sapiens, UniProt Q14432+Q13370)
Measurement Notes: Inhibition of guinea pig ventricular Phosphodiesterase 3 (PDE 3) at 200 uM
Assay type: protein assay
Condition Set: Cavia porcellus, target entry is the homologue from another species
Overview of reported inhibition across a group of compounds:
Quantity: inhibition (%)

>>> val("CCCCN(Cc1ccccc1-c1ccccc1)c1nc2nc3ccccc3n2s1")
31
>>> val("CCN(Cc1ccccc1)c1nc2nc3ccccc3n2s1")
12
>>> val("CCN(Cc1ccccc1-n1ncnn1)c1nc2nc3ccccc3n2s1")
15
>>> val("CCCCN(Cc1ccccc1-n1ncnn1)c1nc2nc3ccccc3n2s1")
32
>>> val("CCCCN(Cc1ccc(-c2ccccc2-n2ncnn2)cc1)c1nc2nc3ccccc3n2s1")
50
>>> val("CCCCN(Cc1ccccc1)c1nc2nc3ccccc3n2s1")
0
>>> val("CCN(Cc1ccccc1-c1ccccc1)c1nc2nc3ccccc3n2s1")
41
>>> val("CCCCN(Cc1ccccc1-c1ccccc1)c1nc2c3c(ccc2s1)CCCC3")
15
